For each of the sequences below, state its shrunken log2 fold change.
System: Escherichia coli TOP10;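 note: peptides expressed intracellularly from a pBAD plasmid library in pooled LB shake-flask culture, induced with 0.3% L-arabinose, DNA abundance read by NGS, three biological replicates, DESeq2 with apeglm shrinkage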
procedure.text: shrunken log2 fold change of peptide-encoding DNA abundance (4.5 h post-induction vs induction); higher = less antimicrobial activity (less host growth inhibition)
experimental.setup: time post-induction: 4.5 h; library: site-saturation at positions 5, 18, 19, 20
Numbers only.

Study these solved cases before continuing.
RRIRSRPPRLPRPRPRPQGWPRP : 0.469
RRIRPRPPRLPRPRPRPLAGPRP : 0.3
RRIRHRPPRLPRPRPRPDPIPRP : 0.0172
RRIRHRPPRLPRPRPRPVCNPRP : -0.761
RRIRPRPPRLPRPRPRPCNKPRP : -0.102
RRIRARPPRLPRPRPRPRGYPRP : 0.166
RRIRERPPRLPRPRPRPTAKPRP : 0.0302
RRIRCRPPRLPRPRPRPPKDPRP : 0.261
RRIRGRPPRLPRPRPRPAIFPRP : 0.583
RRIRIRPPRLPRPRPRPDMSPRP : -0.00804

Give shrunken log2 fold change for all sequences that follow.
1. RRIRTRPPRLPRPRPRPAMLPRP
2. RRIRHRPPRLPRPRPRPVKYPRP
3. RRIRERPPRLPRPRPRPHCLPRP
4. RRIRQRPPRLPRPRPRPVPTPRP
5. RRIRWRPPRLPRPRPRPPPKPRP
6. RRIRGRPPRLPRPRPRPTPAPRP
7. RRIRHRPPRLPRPRPRPVHSPRP
8. RRIRTRPPRLPRPRPRPVFKPRP

# output
-0.0605
-0.0563
-0.138
0.0766
0.945
1.43
0.0246
0.0882

Working through the 4 sequences below one at a time, give shrunken log2 fold change for each.
1. RRIRNRPPRLPRPRPRPDYEPRP
2. RRIRQRPPRLPRPRPRPVSYPRP
3. RRIRIRPPRLPRPRPRPFCHPRP
4. RRIRIRPPRLPRPRPRPTWGPRP

# output
-0.00884
0.0822
-0.302
0.0223

Each of the following entries comes with a recorded value; kindly state shrunken log2 fold change for each.
1. RRIRVRPPRLPRPRPRPRQRPRP
2. RRIRSRPPRLPRPRPRPAHGPRP
3. RRIRSRPPRLPRPRPRPTEFPRP
4. RRIRYRPPRLPRPRPRPILTPRP
5. RRIRERPPRLPRPRPRPANAPRP
6. RRIRDRPPRLPRPRPRPQWTPRP

# output
1: 0.622; 2: 0.153; 3: 0.153; 4: -1.08; 5: -0.0563; 6: 0.448
